B1: Syntaxin-binding protein 4, residues 493 to 538; numbered along this chain, Q6ZWJ1 (parent)
chain: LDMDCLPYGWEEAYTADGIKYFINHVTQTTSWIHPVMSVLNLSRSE

# Variants of: B1
# TEST SUMMARY: abundance fitness (aPCA) (normalised: wild type 0, dead -1); higher = more abundant; growth selection in yeast, the domain comes from the species named
# COND: Homo sapiens
Lab note: compare abundance fitness against -0.3. Equal or greater, write 1.0. Smaller, write 0.0.

{"columns": ["MUTATION LIST", "ASSIGNED CATEGORY"],
 "data": [
  ["G9P", 0.0],
  ["P35H", 0.0],
  ["H25E", 0.0],
  ["H34F", 0.0],
  ["Y14D", 0.0],
  ["V39W", 0.0],
  ["N41A", 0.0],
  ["P7W", 0.0]
]}

In: Is abundance fitness for `P7E` at or above -0.3?
Out: 0.0

In: Is abundance fitness for `G9Q` at or above -0.3?
Out: 0.0

In: Is abundance fitness for `L40R` at or above -0.3?
Out: 1.0

In: Is abundance fitness for `G9D` at or above -0.3?
Out: 0.0

In: Is abundance fitness for `D17Q` at or above -0.3?
Out: 0.0

In: Is abundance fitness for `A13V` at or above -0.3?
Out: 0.0

In: Is abundance fitness for `S43D` at or above -0.3?
Out: 1.0
